Provenance of the data: ChEMBL document CHEMBL1154508

procedureSummary: Oral bioavailability in rat at 3 mg/kg
Assay type: ADME, organism-based
conditions: in vivo
measurementKind: bioavailability (%)
Write the number in % without appending the unit.

Lookup result for CC(C)COc1ccc(Cl)cc1-c1ccccc1-c1cccc(C(=O)[O-])n1.[Na+] ; measured bioavailability: 95

* * *

procedureSummary: Solubility in fed state simulated intestinal fluid after 24 hrs
Format: physicochemical
measurementKind: solubility at 24 h (µg/mL)
Give the number; µg/mL is assumed, so skip it.

Kindly note the recorded solubility at 24 h for CC(C)COc1ccc(Cl)cc1-c1ccccc1-c1cccc(C(=O)[O-])n1.[Na+] , which is 1140

* * *

procedureSummary: Drug level in blood of sub-chronic rat joint pain efficacy model satellite animal group at 5 mg/kg bid measured on day 5 after 1 hr post dose
Assay type: ADME, organism-based
Set-up: dose 5 mg/kg
conditions: read-out: Drug uptake
measurementKind: concentration at 1 h
Please provide the amount together with its unit, number first.

Field concentration at 1 h (entry CC(C)COc1ccc(Cl)cc1-c1ccccc1-c1cccc(C(=O)[O-])n1.[Na+] ) reads 1660 nM

* * *

procedureSummary: Ratio of drug level in brain to blood in rat at 0.28 mg/kg/hr, iv for 18 hrs
Assay type: ADME, organism-based
Design: route intravenous
measurementKind: Kp at 18 h

Item: CC(C)COc1ccc(Cl)cc1-c1ccccc1-c1cccc(C(=O)[O-])n1.[Na+] | Kp at 18 h: 0.33

* * *

procedureSummary: Ratio of drug level in brain to blood in complete Freund's adjuvant-induced rat inflammatory pain model at 2 mg/kg, po after 1 hr
Type: ADME, organism-based
Parameters: dose 2 mg/kg, route oral
measurementKind: Kp at 1 h
Format: numeric value only, no unit, no commentary.

Input CC(C)COc1ccc(Cl)cc1-c1ccccc1-c1cccc(C(=O)[O-])n1.[Na+] . Output Kp at 1 h: 0.22

* * *

procedureSummary: Volume of distribution at steady state in cynomolgus monkey at 1 mg/kg, iv
Format: ADME, organism-based, Macaca fascicularis
Design: dose 1 mg/kg, route intravenous
conditions: in vivo, read-out: Vdss
measurementKind: Vd (L/kg)
Give just the numeric value; L/kg need not be written.

Field Vd (entry CC(C)COc1ccc(Cl)cc1-c1ccccc1-c1cccc(C(=O)[O-])n1.[Na+] ) reads 0.5

* * *

procedureSummary: Solubility in simulated gastric fluid after 24 hrs
Assay type: physicochemical
measurementKind: solubility at 24 h (µg/mL)
API: value field is a number in µg/mL; no unit string.

For this compound ( CC(C)COc1ccc(Cl)cc1-c1ccccc1-c1cccc(C(=O)[O-])n1.[Na+] ), measured solubility at 24 h is 11

* * *

targetSystem: Prostaglandin E2 receptor EP1 subtype (Homo sapiens, UniProt P34995)
Sequence (P34995 whole entry): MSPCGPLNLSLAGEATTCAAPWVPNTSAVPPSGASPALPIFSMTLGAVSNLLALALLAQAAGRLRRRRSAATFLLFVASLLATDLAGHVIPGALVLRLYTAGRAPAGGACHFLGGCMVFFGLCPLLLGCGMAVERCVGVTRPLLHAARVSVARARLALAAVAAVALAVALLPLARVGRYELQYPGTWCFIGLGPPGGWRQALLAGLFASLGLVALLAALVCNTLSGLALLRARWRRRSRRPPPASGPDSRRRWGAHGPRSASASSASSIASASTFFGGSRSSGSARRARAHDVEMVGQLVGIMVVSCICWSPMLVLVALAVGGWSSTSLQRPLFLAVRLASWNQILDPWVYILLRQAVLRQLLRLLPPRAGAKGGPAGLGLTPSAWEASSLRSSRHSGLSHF
procedureSummary: Binding affinity to EP1 receptor
measurementKind: IC50 (nM)
API: value field is a number in nM; no unit string.

A selection of reference data follows.
Cc1cccc(-c2cc(Cl)ccc2OCc2ccccc2)c1-c1cccc(C(=O)O)c1
100
O=C(O)c1cccc(-c2ccccc2-c2ccc(Cl)cc2OCc2ccccc2)c1
316

The value of IC50 measured for the compound COCC(=O)Nc1cc(C(=O)O)cc(-c2ccccc2-c2cc(Cl)ccc2OCc2ccccc2)c1 turned out to be 3.98

Record CCCCOc1ccc(Cl)cc1-c1ccccc1-c1cccc(C(=O)O)n1 , field IC50: 100

Record summary for CC(=O)Nc1cc(C(=O)O)cc(-c2ccccc2-c2cc(Cl)ccc2OCc2ccccc2)c1 : reported IC50 = 10
